experiment: Oral bioavailability in Sprague-Dawley rat at 10 mg/kg administered as single dose
Format: ADME, organism-based
measurementSetup: in vivo
testReadout: bioavailability (%)

[1] CN1CCN(C(=O)c2ccc3c(c2)-c2nc(N)nc(-c4ccccc4)c2C3=O)CC1
[2] Nc1nc(-c2ccccc2)c2c(n1)-c1cc(OCCN3CCOCC3)ccc1C2=O
Please indicate which item has the smaller measured bioavailability: 1 versus 2 Answer by quoting the chosen item's label.
2
(2: 18%, 1: 45%)

---

experiment: Clearance in cynomolgus monkey at 1 mg/kg, iv and 10 mg/kg, po administered as single dose
Format: ADME, organism-based, Macaca fascicularis
measurementSetup: in vivo
testReadout: clearance (mL/min/kg)
Record the value in mL/min/kg, omitting the unit from your answer.

So what's the measured clearance for this one? Nc1nc(-c2ccccc2)c2c(n1)-c1cc(CN3CCCC3)ccc1C2=O
56

---

experiment: Terminal half life in Sprague-Dawley rat at 10 mg/kg, po administered as single dose
Assay type: ADME, organism-based
Design: dose 10 mg/kg, route oral
measurementSetup: in vivo, read-out: beta t1/2 (converted)
testReadout: half-life (h)

[A] CN1CCN(C(=O)c2ccc3c(c2)-c2nc(N)nc(-c4ccccc4)c2C3=O)CC1
[B] Nc1nc(-c2ccccc2)c2c(n1)-c1cc(OCCN3CCOCC3)ccc1C2=O
Between the two listed entries A and B , which has its half-life at the higher number? API: response body contains the label of the selected item.
A

---

experiment: Oral bioavailability in cynomolgus monkey at 10 mg/kg administered as single dose
Format: ADME, organism-based, Macaca fascicularis
measurementSetup: in vivo
testReadout: bioavailability (%)

Find the recorded bioavailability belonging to Nc1nc(-c2ccccc2)c2c(n1)-c1cc(OCCN3CCOCC3)ccc1C2=O and report it.
55

Name the recorded bioavailability for CN1CCN(C(=O)c2ccc3c(c2)-c2nc(N)nc(-c4ccccc4)c2C3=O)CC1 .
47

---

measurementTarget: Adenosine receptor A2a (Homo sapiens, UniProt P29274)
Sequence (P29274 whole entry): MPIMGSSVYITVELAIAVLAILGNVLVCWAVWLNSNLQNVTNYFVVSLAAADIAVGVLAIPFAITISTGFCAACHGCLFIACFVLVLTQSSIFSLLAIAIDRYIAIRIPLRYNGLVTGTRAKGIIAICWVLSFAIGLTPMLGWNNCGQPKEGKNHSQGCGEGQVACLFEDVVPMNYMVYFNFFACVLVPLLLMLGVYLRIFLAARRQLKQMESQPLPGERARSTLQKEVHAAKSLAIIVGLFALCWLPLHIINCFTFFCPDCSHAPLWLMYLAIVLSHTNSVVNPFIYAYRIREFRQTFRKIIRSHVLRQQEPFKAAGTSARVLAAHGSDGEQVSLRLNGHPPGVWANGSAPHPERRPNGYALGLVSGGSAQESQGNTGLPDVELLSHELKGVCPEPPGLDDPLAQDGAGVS
experiment: Antagonist activity at human Adenosine receptor A2a assessed as inhibition of cAMP production
testReadout: Ki (nM)

Request the reported Ki associated with Nc1nc(-c2ccccc2)c2c(n1)-c1cc(Cc3cncc(F)c3)ccc1C2=O
1.3

Dear colleague, I am looking for the recorded Ki of the following molecule: Nc1nc(-c2ccccc2)c2c(n1)-c1cc(Cc3ccncc3F)ccc1C2=O
0.7

[I] Nc1nc(-c2ccccc2)c2c(n1)-c1cc(C(=O)c3cccnc3)ccc1C2=O
[II] N#Cc1cncc(Cc2ccc3c(c2)-c2nc(N)nc(-c4ccccc4)c2C3=O)c1
When their Ki values are compared, which is larger, I or II ? Write down the label attached to your selection.
II
(II: 1.4 nM, I: 0.5 nM)

---

measurementTarget: Adenosine receptor A1 (Homo sapiens, UniProt P30542)
experiment: Antagonist activity at human Adenosine receptor A1 assessed as inhibition of cAMP production
pKi: −log10 of the molar value.
testReadout: pKi

Sample answers from the record:
GET /values?readout=pKi&system=Adenosine receptor A1 (Homo sapiens, UniProt P30542)&item= Nc1nc(-c2ccccc2)c2c(n1)-c1cc(C(F)(F)c3cccnc3)ccc1C2=O
7.53

Find the measured pKi: item Nc1nc(-c2ccccc2)c2c(n1)-c1cc(Cc3ccncc3F)ccc1C2=O , target or system Adenosine receptor A1 (Homo sapiens, UniProt P30542).
8.60

[I] CC1CC[C@@H](C)N1Cc1ccc2c(c1)-c1nc(N)nc(-c3ccccc3)c1C2=O (mixture of isomers)
[II] Nc1nc(-c2ccccc2)c2c(n1)-c1cc(Cc3cnccc3Cl)ccc1C2=O
[III] Nc1nc(-c2ccccc2)c2c(n1)-c1cc(Cc3cncc(F)c3)ccc1C2=O
Put the compounds in ascending order of pKi. Arrange the labels as the request states and list them.
I, III, II

---

experiment: Clearance in Sprague-Dawley rat at 2 mg/kg, iv and 10 mg/kg, po administered as single dose
Type: ADME, organism-based
measurementSetup: in vivo
testReadout: clearance (mL/min/kg)

Which clearance is listed for CN1CCN(C(=O)c2ccc3c(c2)-c2nc(N)nc(-c4ccccc4)c2C3=O)CC1 ?
52

[P] Nc1nc(-c2ccccc2)c2c(n1)-c1cc(CN3CCCC3)ccc1C2=O
[Q] Nc1nc(-c2ccccc2)c2c(n1)-c1cc(OCCN3CCOCC3)ccc1C2=O
Hi, I'm comparing two records. Which one has the lower clearance, P or Q ? Field: selected label. Fill in the label of the entry you choose.
Q

---

experiment: Oral bioavailability in BALB/c mouse at 10 mg/kg administered as single dose
Format: ADME, organism-based
measurementSetup: in vivo
testReadout: bioavailability (%)

[I] CN1CCN(C(=O)c2ccc3c(c2)-c2nc(N)nc(-c4ccccc4)c2C3=O)CC1
[II] Nc1nc(-c2ccccc2)c2c(n1)-c1cc(OCCN3CCOCC3)ccc1C2=O
Among I and II , whose measured bioavailability is the smaller figure? Answer with the label corresponding to your selection.
I

---

measurementTarget: Adenosine receptor A1 (Homo sapiens, UniProt P30542)
Sequence (P30542 whole entry): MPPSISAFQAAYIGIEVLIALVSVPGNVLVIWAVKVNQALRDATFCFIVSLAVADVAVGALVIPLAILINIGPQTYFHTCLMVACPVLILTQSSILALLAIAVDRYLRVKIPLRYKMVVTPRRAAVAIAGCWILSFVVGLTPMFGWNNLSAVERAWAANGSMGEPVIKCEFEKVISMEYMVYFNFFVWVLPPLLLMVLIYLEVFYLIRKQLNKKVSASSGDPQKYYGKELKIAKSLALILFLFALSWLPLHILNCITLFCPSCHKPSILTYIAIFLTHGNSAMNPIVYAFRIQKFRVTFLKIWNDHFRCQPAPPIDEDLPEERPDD
experiment: Antagonist activity at human Adenosine receptor A1 assessed as inhibition of cAMP production
testReadout: Ki (nM)

The examples below pair each entry with its known result.
Item Nc1nc(-c2ccccc2)c2c(n1)-c1cc(C(=O)c3cccnc3)ccc1C2=O has what recorded Ki?
1.8

What value of Ki has been reported for the following compound? Nc1nc(-c2ccccc2)c2c(n1)-c1cc(CN3C4CCC3CC4)ccc1C2=O
223

[a] Nc1nc(-c2ccccc2)c2c(n1)-c1cc(Cc3cccnc3)ccc1C2=O
[b] N#Cc1cncc(Cc2ccc3c(c2)-c2nc(N)nc(-c4ccccc4)c2C3=O)c1
Of a and b , which one carries the higher reported Ki? Please indicate the selected item by its label.
b

---

experiment: Volume of distribution at steady state in Sprague-Dawley rat at 2 mg/kg, iv administered as single dose
Format: ADME, organism-based
Set-up: dose 2 mg/kg, route intravenous
measurementSetup: in vivo, read-out: Vdss
testReadout: Vd (L/kg)

Field request: Vd | item: Nc1nc(-c2ccccc2)c2c(n1)-c1cc(CN3CCCC3)ccc1C2=O
7

[P] CN1CCN(C(=O)c2ccc3c(c2)-c2nc(N)nc(-c4ccccc4)c2C3=O)CC1
[Q] Nc1nc(-c2ccccc2)c2c(n1)-c1cc(OCCN3CCOCC3)ccc1C2=O
Which shows the larger Vd value: P or Q ? Answer by stating the label of the chosen item.
P
(P: 6 L/kg, Q: 1 L/kg)
